Test system: M14 melanoma
Test summary: NCI tumour cell line growth inhibition, 48 h
Where a SMILES comes first, the peptide text is derived from it. The star is where a group is joined. Cbz = O=C(OCc1ccccc1)*
List of TGI values.

For orientation, consider the following solved cases.
Molecule: c1ccc2c3c([nH]c2c1)C1(CCCCC1)c1c([nH]c2ccccc12)C31CCCCC1
Endpoint name: TGI
Test value: > 100 µM

Molecule: Nc1nc(Cl)cc(NCCCCCCCCCCCCNc2cc(Cl)nc(N)n2)n1
Endpoint name: TGI
Test value: > 100 µM

Molecule: Cc1cc(N)ccc1C=O
Endpoint name: TGI
Test value: > 100 µM

Molecule: CC(C)(C)N(Cc1ccoc1)C(=O)/C=C\S(=O)c1ccccc1 (stereo not drawn)
Endpoint name: TGI
Test value: 40 µM

Molecule: COC1=CC(=O)[C@]2(C)[C@H](C1=O)C(C)[C@H]2c1ccccc1 (stereo partly drawn)
Endpoint name: TGI
Test value: > 100 µM

[in] // Input: CCOC(=O)C(CC(=O)OC)NC(=O)C(CC(=O)OC)NC(=O)C(CC(=O)OC)NC(=O)C(CC(=O)OC)NC(=O)OCc1ccccc1 (stereo not drawn) (Cbz-D(OMe)D(OMe)D(OMe)D(OMe)-OEt; configuration not given here) . Output its TGI only.
[out] > 100 µM

[in] // Input: CCOC(=O)NC(=O)c1cn(CCN2CCN(C(=O)NCCCCCCNC(=O)N3CCN(CCn4cc(C(=O)NC(=O)OCC)c(=O)n(CCN(CC)CC)c4=O)CC3)CC2)c(=O)n(CCC(CC)CC)c1=O . Output its TGI only.
[out] > 100 µM

[in] // Input: CC(=O)N1N=C(c2c(O)ccc3ccccc23)CC1c1ccc(Cl)cc1 (stereo not drawn) . Output its TGI only.
[out] 33.5 µM

* * *

List of TGI values.
Tested on: RXF 393 renal
Test summary: NCI tumour cell line growth inhibition, 48 h

Compound: CCCCCCCSCC1C(=O)C23C(O)C1CCC2C12COC3(O)C(O)C1C(C)(C)CCC2O (stereo unspecified)
Target: RXF 393 renal
Test value: 27.1 µM
--
Compound: S=C(Nc1ccccc1)N(Cc1ccccc1)c1ccccc1
Target: RXF 393 renal
Test value: 85 µM
--
Compound: CCOC(=O)C1=NN(c2ccccc2)C2=CC(C)=NN(C)C(=S)N21
Target: RXF 393 renal
Test value: > 100 µM
--
Compound: COc1ccc(/C=C/C(=O)c2cc3c(N)c(C(=O)Nc4ccccc4)sc3nc2C)cc1
Target: RXF 393 renal
Test value: 2.31 µM
--
Compound: CO/N=C(/C(=O)OC)c1ccccc1COc1cccc(C(F)(F)F)c1
Target: RXF 393 renal
Test value: 98 µM
--
Compound: C/C(=N\O)C(CN1CCCCC1)C(c1ccccc1)c1c(O)c2ccccc2oc1=O (stereo unspecified)
Target: RXF 393 renal
Test value: > 100 µM
--
Compound: CC(=O)c1c[nH]cc1CO
Target: RXF 393 renal
Test value: > 10 µM
--
Compound: O=C1C[C@@H]2CCCC[C@@H]2C12SCCS2
Target: RXF 393 renal
Test value: > 100 µM
--
Compound: COC(=O)c1c(O)ccc2c1c1c(n2-c2ccc(OC)cc2)C(=O)c2ccccc2C1=O
Target: RXF 393 renal
Test value: 25.7 µM
--
Compound: Nc1cccc(C#Cc2cccc(C#Cc3cccc(N)n3)n2)n1
Target: RXF 393 renal
Test value: > 100 µM

[in] // Input: CCOC(=O)c1nc2ccccc2nc1Oc1ccc(OC)cc1 . Output its TGI only.
[out] > 100 µM

[in] // Input: [O-]c1c[n+](CC[n+]2cc([O-])on2)no1 . Output its TGI only.
[out] > 100 µM

[in] // Input: CCCCCCCCCC1CC(=O)NCC(=O)NC(C(C)C)C(=O)NC(CC(C)C)C(=O)NC(C)C(=O)NC(C(C)C)C(=O)O1 (stereo unspecified) . Output its TGI only.
[out] > 94.9 µM

* * *

Test system: NCI-H460 lung
Test summary: NCI tumour cell line growth inhibition, 48 h
Endpoint name: TGI (µM)
Output spec: scalar in µM, unitless text.

Smiles notation: COC(=O)c1c(O)ccc2c1c1c(n2-c2ccc(OC)cc2)C(=O)c2ccccc2C1=O
Unit label: µM
Test value: 61.7

Let us examine a further case.
[in] // Input: O=C1/C(=C/c2ccc(Cl)cc2)COc2ccc(O)c(O)c21 . Output its TGI only.
[out] 3.89

* * *

List of TGI values.
Test system: KM12 colon
Test summary: NCI tumour cell line growth inhibition, 48 h

For orientation, consider the following solved cases.
Compound: OC(CNc1ccnc2cc(Cl)ccc12)CNC1CCCCC1 (configuration not stated)
Target: KM12 colon
TGI: 27.3 µM
//
Compound: Nc1cccc(C#Cc2cccc(C#Cc3cccc(N)n3)n2)n1
Target: KM12 colon
TGI: > 100 µM
//
Compound: C/C(=N/NC(=S)NCCc1ccccn1)c1cnccn1
Target: KM12 colon
TGI: > 100 µM

[in] // Input: COc1ccccc1/C=N/N=C(\N)NO . Output its TGI only.
[out] > 100 µM

[in] // Input: C=CCCCCCC(O)C(O)C/C=C\C/C=C\CC (configuration not stated) . Output its TGI only.
[out] > 18.8 µM

[in] // Input: CCOC(=O)c1nc2ccccc2nc1Oc1ccc(OC)cc1 . Output its TGI only.
[out] > 100 µM

[in] // Input: Clc1ccc2c(c1)-c1ccccc1C1=NCCN12 . Output its TGI only.
[out] 7.79 µM

* * *

System: SK-MEL-2 melanoma
Test summary: NCI tumour cell line growth inhibition, 48 h; in the data active means GI50 below about 0.43 µM; inactive means the rest
Entry note: the call must match one of true (active), false (inactive)

Use the examples below as a reference point.
Compound: CSC1C(=O)c2ccccc2/C(=N/Nc2nc3ccccc3s2)C1C (centres undefined)
Label value: false
//
Compound: Oc1ccc(N=Nc2ccc(N=Nc3ccccc3)cc2)cc1
Label value: false
//
Compound: O=Cc1ccc(O)c2ncccc12
Label value: false
//
Compound: O=C1/C(=C/c2ccc(Cl)cc2)COc2ccc(O)c(O)c21
Label value: false
//
Compound: COc1cccc2c(=O)c3c(sc12)c(NCCN(C)C)nc1ccccc13
Label value: false
//
Compound: COc1ccc(/C=C/C(=O)c2cc3c(N)c(C(=O)Nc4ccccc4)sc3nc2C)cc1
Label value: true

[in] Returns: the outcome recorded for COc1ccc2c(c1)OC(N)=C(C#N)C2c1ccc(F)cc1 (centres undefined) in this assay.
[out] false

[in] Returns: the outcome recorded for CS(=O)(=O)Nc1cc(-c2ccc3ncnc(Nc4ccc5c(cnn5Cc5ccccc5F)c4)c3c2)cnc1Cl in this assay.
[out] false

[in] Returns: the outcome recorded for CC1=C(C(=O)Nc2ccc(F)c(Cl)c2)C(c2cccc(Oc3ccccc3)c2)NC(=O)N1 (centres undefined) in this assay.
[out] false

* * *

List of TGI values.
Test system: A498 renal
Test summary: NCI tumour cell line growth inhibition, 48 h
Output spec: scalar in µM, unitless text.

For orientation, consider the following solved cases.
Compound: O=C(CC(C(=O)c1cccs1)c1ccsc1)c1ccco1 (centres undefined)
Unit label: µM
TGI: 64
//
Compound: Cc1c(F)c(N)c2c(=O)cc(-c3ccc(NC(=O)[C@@H](N)CCCCN)c(F)c3)oc2c1F
Unit label: µM
TGI: 0.22

Let us examine a further case.
[in] // Input: COc1ccc2c(c1)CCCN1Cc3ccccc3CC21 (centres undefined) . Output its TGI only.
[out] 96.8

* * *

List of TGI values.
Tested on: CAKI-1 renal
Test summary: NCI tumour cell line growth inhibition, 48 h

For orientation, consider the following solved cases.
Compound: C[C@@H]1C[C@@]2(O[C@@H]2C)C(=O)O[C@@H]2CCN3CC=C(COC(=O)[C@]1(C)O)[C@H]23
Target: CAKI-1 renal
TGI: > 100 µM

Compound: OC(CNC1CCCC1)Cn1c2ccccc2c2ccccc21 (configuration not stated)
Target: CAKI-1 renal
TGI: > 100 µM

Compound: COc1cc(C2c3cc4c(cc3OC(NCc3ccccc3)C2C)OCO4)cc(OC)c1OC (configuration not stated)
Target: CAKI-1 renal
TGI: 0.982 µM

[in] // Input: O=C1/C(=C/c2ccc(Cl)cc2)COc2ccc(O)c(O)c21 . Output its TGI only.
[out] 2.28 µM

[in] // Input: Cc1ccc(/C(O)=C/c2nc3ccccc3[nH]c2=O)c(C)c1 . Output its TGI only.
[out] 18.3 µM

[in] // Input: COc1cccc2c(=O)c3c(sc12)c(NCCN(C)C)nc1ccccc13 . Output its TGI only.
[out] 3.12 µM

[in] // Input: C/C=C/C=C\C1OC(O)([C@H](CC)C(=O)NC/C=C/C=C(\C)[C@H](OC)C(C)C2OC(\C=C/C=C/C=C(\C)C(=O)c3c(O)ccn(C)c3=O)[C@H](O)[C@@H]2O)C(O)C(O)C1(C)C (some centres not stated) . Output its TGI only.
[out] > 100 µM

[in] // Input: O=C(/C=C(\O)c1ccc(Cl)cc1)C(=O)NN=C(c1ccccc1)c1ccccc1 . Output its TGI only.
[out] > 100 µM

[in] // Input: CC1(C)C2C/C(=C\c3ccccc3)C(=O)C1C2 (configuration not stated) . Output its TGI only.
[out] > 100 µM

[in] // Input: COc1cc(-c2oc(C=Nc3ccccc3)c([N+](=O)[O-])c2-c2ccc(O)c(OC)c2)ccc1O . Output its TGI only.
[out] 47.2 µM

[in] // Input: COC(=O)/C=C(/C(=O)OC)c1c(C)cc2c(C)cc(C)cc(C)c1-2 . Output its TGI only.
[out] > 100 µM

[in] // Input: OC(CNc1ccnc2cc(Cl)ccc12)CNC1CCCCC1 (configuration not stated) . Output its TGI only.
[out] 4.05 µM

[in] // Input: COc1cc([N+](=O)[O-])c(OC)cc1-c1nc2sc(Cl)cn2c1/C=N/NC(=N)N/N=C/c1c(-c2cc(OC)c([N+](=O)[O-])cc2OC)nc2sc(Cl)cn12 . Output its TGI only.
[out] 23.8 µM

[in] // Input: O=CC1C[C@@H](N2C(=O)O[C@@H](c3ccccc3)[C@H]2c2ccccc2)[C@@H]1COCc1ccccc1 (some centres not stated) . Output its TGI only.
[out] > 100 µM
